# Tgt: BLM-core helicase (human, UniProt P54132 642-1290)
# Sequence (P54132 642-1290): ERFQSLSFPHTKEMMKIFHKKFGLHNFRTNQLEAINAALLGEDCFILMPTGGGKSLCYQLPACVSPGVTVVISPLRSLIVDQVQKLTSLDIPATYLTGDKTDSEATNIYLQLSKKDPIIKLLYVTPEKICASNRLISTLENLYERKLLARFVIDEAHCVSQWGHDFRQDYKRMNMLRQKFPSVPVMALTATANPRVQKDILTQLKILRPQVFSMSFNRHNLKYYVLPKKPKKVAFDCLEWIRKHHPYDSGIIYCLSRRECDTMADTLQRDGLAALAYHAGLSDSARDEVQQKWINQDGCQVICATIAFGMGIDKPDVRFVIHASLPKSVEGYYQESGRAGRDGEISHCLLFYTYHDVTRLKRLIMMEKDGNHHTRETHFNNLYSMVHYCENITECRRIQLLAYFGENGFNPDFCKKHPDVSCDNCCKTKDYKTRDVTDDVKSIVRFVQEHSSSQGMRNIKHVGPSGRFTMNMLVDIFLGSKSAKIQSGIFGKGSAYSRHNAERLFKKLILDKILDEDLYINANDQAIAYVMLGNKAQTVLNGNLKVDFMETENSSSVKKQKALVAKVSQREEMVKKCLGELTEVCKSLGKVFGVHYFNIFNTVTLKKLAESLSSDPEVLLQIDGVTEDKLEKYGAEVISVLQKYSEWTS
# Assay: fluorescence anisotropy
Test Readout: pKd
Scale for pKd: -log10 of concentration given in mol/L; no unit attached.

| Binder | pKd |
| --- | --- |
| GGGCGCGGGAGGAAGGGGGCGGG (structured_DNA) [F-Bcl2-G4] | 7.01 |

// moving on: another record for pKd
For record CCCGCCCCCTTCCTCCCGCGCCC (structured_DNA) [F-Bcl2-IM] the listed pKd is 7.66
